Target: human CCR8 (human, UniProt P51685 1-355)
Assay: cell-based or functional assay
residual hCCL1 (100 nM) Gi2 response, protocol #2, mAb 0.4 µg/mL values, listed per item
The answer is to be given in %; state only the numeric part.

BINDER	VALUE_REPORTED
anti-CCR8 mAb 1-4 (antibody, V domains shown, Murine hybridoma mAb) VH: EVQLVESGGGLVQPTGSLRLSCAASGFTFNAYAMNWVRQAPGKGLEWVARIRSKSNDYATYYGDSVKDRFTISRDDSQSMLYLQMNNLKTEDTAMYYCVRGREAYYRYDGGYYAMDYWGQGTSVTVSS VL: DIVMTQAAPSVSVTPGESVSISCTSSKSLLHSNGNTYLYWFLQRPGQSPQLLIYRMSNLASGVPDRFSGSGSGTAFTLRISRVEAEDVGVYYCMQHREYPFTFGSGTKLEIK	49
anti-CCR8 mAb 1-3 (antibody, V domains shown, Murine hybridoma mAb) VH: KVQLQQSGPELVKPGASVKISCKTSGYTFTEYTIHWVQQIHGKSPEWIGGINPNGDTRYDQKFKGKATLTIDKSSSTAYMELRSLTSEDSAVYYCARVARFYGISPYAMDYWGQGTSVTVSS VL: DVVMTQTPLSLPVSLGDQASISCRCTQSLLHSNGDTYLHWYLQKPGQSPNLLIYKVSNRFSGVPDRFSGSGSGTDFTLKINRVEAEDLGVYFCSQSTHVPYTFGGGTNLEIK	93
anti-CCR8 mAb 1-13 (antibody, V domains shown, Murine hybridoma mAb) VH: EVQLVETGGGLVQPKGSLKLSCAASGFTFNTNAMNWVRQAPGKGLEWVARIRSKSNYYATYYADSVKDRFTISRDDSQSMLYLQMNNLKTEDTAMYYCVRGREMGNYYSMDYWGQGTSVTVSS VL: DIVMTQAAPSVPVTPGESVSISCRSSKSLLHSNGNTYLYWFLQRPGQSPQLLIYRMSNLASGVPDRFSGSGSGTAFTLRISRVEAEDVGVYYCMQHLEYPFTFGSGTKLEIK	35
anti-CCR8 mAb 1-24 (antibody, human IgG1, kappa, V domains shown, Humanized mAb, human IgG1 / kappa) VH: QVQLQQSGPEVVKPGASVKVSCKTSGYTFTEYTIHWVRQSHGQSLEWVGGINPNNGNTRYDQKFKGRVTITIDKSSSTAYMELRSLTSEDTAVYYCARVARSSGSGPYAMDYWGQGTTVTVSS VL: DVVMTQSPLSLPVTLGDQASISCRCSQSLLHTNGDTYLHWYLQRPGQSPRLLIYKVSNRFSGVPDRFSGSGSGTDFTLKISRVEAEDVGVYFCSQSTHVPYTFGGGTKVEIKR	66
anti-CCR8 mAb 1-1 (antibody, V domains shown, Murine hybridoma mAb) VH: EVQLLESGGGLVQPKGSLKLSCAASGFTFNPYAMNWVRQAPGRGLEWVARIRSKSNNYATYYADSVKDRFTISRDDSQDMLYLQMNNLKTEDTAMYYCVRGREAYYRYDGDYYAMDYWGQGTSVTVSS VL: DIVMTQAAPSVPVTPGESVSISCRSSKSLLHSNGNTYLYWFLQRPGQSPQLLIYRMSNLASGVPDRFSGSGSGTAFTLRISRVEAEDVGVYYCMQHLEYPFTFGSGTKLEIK	69

// switching to the query binder
Sure, the documented residual hCCL1 (100 nM) Gi2 response, protocol #2, mAb 0.4 µg/mL for anti-CCR8 mAb 1-12 (antibody, V domains shown, Murine hybridoma mAb) VH: EVQLVETGGGLVQPKGSLKLSCAASGFTFNANAMNWVRQAPGKGLEWVARIRSKSNNYATYYADSVKDRFTISRDDSQSMLYLQMNNLKTEDTAMYYCVRGSDNYIFYAMDYWGQGTSVTVSS VL: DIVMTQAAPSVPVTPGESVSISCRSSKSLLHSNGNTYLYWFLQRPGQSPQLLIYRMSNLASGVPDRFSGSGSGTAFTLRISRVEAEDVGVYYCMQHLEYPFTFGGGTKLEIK is 85
